Answer each item with its documented pKa.
# PROTOCOL_NOTES: Dissociation constant, pKa of the compound
# Type: physicochemical
// no unit, no text: just the number

Sample "COc1cccc(C(=O)NCCN2CCN(c3ccc(C)cc3)CC2)c1" — what was its pKa?
6.46

Next record, please: "O=C(NCCN1CCN(c2ccc(Cl)cn2)CC1)c1ccc(F)cc1"
6.58

Next record, please: "Cc1ccc(N2CCN(CCNC(=O)c3ccc(F)cc3)CC2)cc1"
6.31

Next record, please: "N#Cc1ccc(N2CCN(CCNC(=O)c3ccc(F)cc3)CC2)cc1"
6.43

Next record, please: "N#Cc1cccnc1N1CCN(CCNC(=O)c2ccc(F)cc2)CC1"
6.4

Next record, please: "COc1cccc(C(=O)NCCN2CCN(c3ncccc3C#N)CC2)c1"
6.71

Next record, please: "COc1cccc(C(=O)NCCN2CCN(c3ccc(Cl)cn3)CC2)c1"
6.45

Next record, please: "O=C(NCCN1CCN(c2noc3ccccc23)CC1)c1ccc(F)cc1"
6.43

Next record, please: "COc1cccc(C(=O)NCCN2CCN(c3noc4ccccc34)CC2)c1"
6.24

Next record, please: "O=C(NCCN1CCN(c2ccc(Cl)cc2)CC1)c1ccc(F)cc1"
6.46

Next record, please: "COc1cccc(C(=O)NCCN2CCN(c3ccc(Cl)cc3)CC2)c1"
6.19

====

# TARGET_OR_SYSTEM: D(2) dopamine receptor (Rattus norvegicus) (UniProt P61169)
# Sequence (P61169 whole entry): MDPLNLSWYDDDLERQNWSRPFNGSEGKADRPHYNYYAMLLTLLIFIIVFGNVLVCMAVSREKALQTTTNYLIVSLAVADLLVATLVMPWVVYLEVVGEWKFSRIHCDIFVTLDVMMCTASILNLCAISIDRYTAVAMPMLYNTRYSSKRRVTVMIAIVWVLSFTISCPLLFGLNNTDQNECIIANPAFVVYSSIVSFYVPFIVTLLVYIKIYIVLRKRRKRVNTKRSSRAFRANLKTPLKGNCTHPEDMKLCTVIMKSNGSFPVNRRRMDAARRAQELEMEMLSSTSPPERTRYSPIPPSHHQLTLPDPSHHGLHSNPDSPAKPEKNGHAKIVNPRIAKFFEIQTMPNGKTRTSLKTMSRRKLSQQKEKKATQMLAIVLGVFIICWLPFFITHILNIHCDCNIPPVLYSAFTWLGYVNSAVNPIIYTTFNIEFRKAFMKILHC
# PROTOCOL_NOTES: Displacement of [3H]MSP from rat dopamine D2L receptor expressed in HEK293 cells at 1 uM after 90 mins by scintillation counting
# Type: cell-based
ENDPOINT_LABEL: Activity (%)
Write the number in % without appending the unit.

Entry "O=C(NCCN1CCN(c2ccc(Cl)cn2)CC1)c1ccc(F)cc1" , system D(2) dopamine receptor (Rattus norvegicus) (UniProt P61169): what Activity was measured?
43

Next record, please: "Cc1ccc(N2CCN(CCNC(=O)c3ccc(F)cc3)CC2)cc1"
29

Next record, please: "COc1cccc(C(=O)NCCN2CCN(c3ccc(Cl)cc3)CC2)c1"
7.8

Next record, please: "COc1cccc(C(=O)NCCN2CCN(c3noc4ccccc34)CC2)c1"
84

Next record, please: "N#Cc1cccnc1N1CCN(CCNC(=O)c2ccc(F)cc2)CC1"
32

Next record, please: "O=C(NCCN1CCN(c2ccc(Cl)cc2)CC1)c1ccc(F)cc1"
48

Next record, please: "COc1cccc(C(=O)NCCN2CCN(c3ncccc3C#N)CC2)c1"
4.4

Next record, please: "N#Cc1ccc(N2CCN(CCNC(=O)c3ccc(F)cc3)CC2)cc1"
0

Next record, please: "O=C(NCCN1CCN(c2noc3ccccc23)CC1)c1ccc(F)cc1"
89

Next record, please: "COc1cccc(C(=O)NCCN2CCN(c3ccc(C#N)cc3)CC2)c1"
0

====

# TARGET_OR_SYSTEM: Sigma non-opioid intracellular receptor 1 (Homo sapiens) (UniProt Q99720)
# Sequence (Q99720 whole entry): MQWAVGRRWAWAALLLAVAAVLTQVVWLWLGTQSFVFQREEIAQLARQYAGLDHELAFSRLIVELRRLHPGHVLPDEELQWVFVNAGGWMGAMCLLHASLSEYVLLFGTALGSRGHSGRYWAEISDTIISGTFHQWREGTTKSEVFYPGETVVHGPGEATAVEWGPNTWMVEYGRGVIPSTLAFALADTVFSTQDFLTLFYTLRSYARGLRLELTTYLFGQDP
# PROTOCOL_NOTES: Displacement of [3H](+)-pentazocine from human sigma 1 receptor expressed in MCF7 cells at 1 uM after 180 mins by scintillation counting
# Assay type: cell-based
Each entry falls in a class defined on Activity; the bands are LOW: < 8%; MEDIUM: ≥ 8% and < 20%; HIGH: ≥ 20%

Any idea which band "Cc1ccc(N2CCN(CCNC(=O)c3ccc(F)cc3)CC2)cc1" is in?
HIGH

Next record, please: "COc1cccc(C(=O)NCCN2CCN(c3ccc(C)cc3)CC2)c1"
LOW

Next record, please: "COc1cccc(C(=O)NCCN2CCN(c3noc4ccccc34)CC2)c1"
MEDIUM

Next record, please: "COc1cccc(C(=O)NCCN2CCN(c3ccc(Cl)cn3)CC2)c1"
MEDIUM

Next record, please: "O=C(NCCN1CCN(c2ccc(Cl)cn2)CC1)c1ccc(F)cc1"
HIGH

Next record, please: "COc1cccc(C(=O)NCCN2CCN(c3ccc(Cl)cc3)CC2)c1"
HIGH

Next record, please: "COc1cccc(C(=O)NCCN2CCN(c3ncccc3C#N)CC2)c1"
MEDIUM

Next record, please: "N#Cc1ccc(N2CCN(CCNC(=O)c3ccc(F)cc3)CC2)cc1"
LOW

Next record, please: "COc1cccc(C(=O)NCCN2CCN(c3ccc(C#N)cc3)CC2)c1"
HIGH

Next record, please: "N#Cc1cccnc1N1CCN(CCNC(=O)c2ccc(F)cc2)CC1"
LOW

Next record, please: "O=C(NCCN1CCN(c2ccc(Cl)cc2)CC1)c1ccc(F)cc1"
HIGH

Next record, please: "O=C(NCCN1CCN(c2noc3ccccc23)CC1)c1ccc(F)cc1"
HIGH
